Reference for the values: patent US20200157194A1

Molecular target: T1, human GREM1 (hGREM1-His; SEQ ID NO: 595) (human, UniProt O60565 25-184)
T1 construct: also called biotin-hGREM1-His; recombinant human GREM1 protein
T1 sequence: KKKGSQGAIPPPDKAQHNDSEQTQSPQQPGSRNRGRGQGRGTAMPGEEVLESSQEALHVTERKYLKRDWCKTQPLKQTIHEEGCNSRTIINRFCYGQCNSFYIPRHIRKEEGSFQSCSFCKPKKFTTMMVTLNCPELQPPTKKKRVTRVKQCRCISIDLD
Experiment: SPR, Biacore T200, 25 C, mAb captured, hGREM1-His injected;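 further: Heparin-supplemented HBS-EP+ used as running buffer, association and dissociation phases followed, Kd computed as koff divided by kon and half-life derived from koff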
binders and their reported pKd
# pKd = -log10(concentration in molar units)

Examples from the recorded data:
BINDER: H4H2783N2 (antibody, human IgG4, V domains shown, H4H prefix = human IgG4 Fc) VH: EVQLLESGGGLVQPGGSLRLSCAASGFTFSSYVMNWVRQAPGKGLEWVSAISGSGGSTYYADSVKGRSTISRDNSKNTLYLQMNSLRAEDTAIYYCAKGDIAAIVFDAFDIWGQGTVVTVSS VL: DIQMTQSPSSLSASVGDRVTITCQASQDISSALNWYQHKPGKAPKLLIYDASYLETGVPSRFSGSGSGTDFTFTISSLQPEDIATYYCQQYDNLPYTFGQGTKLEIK
pKd: 7.80
//
BINDER: H4H6233P (antibody, human IgG4, V domains shown, H4H prefix = human IgG4 Fc) VH: QVQLVESGGGVVQPGRSLRLSCAASGFTFSSYGMHWVRQAPGKGLEWVAVIWYDGSNYYYAASVKGRFTISRDNSENTLYLQMNRLRAEDTAVYYCAREGTGSTEDYFDYWGQGTLVTVSS VL: EIVLTQSPATLSLSPGERATLSCRASQSVSSFLAWYQQKPGQAPRLLIYDASNRATGIPVRFSGSGSGTDFTLTISSLEPEDFAVYYCQQRSNWPPYTFGQGTKLEIK
pKd: 8.73
//
BINDER: H4H6232P (antibody, human IgG4, V domains shown, H4H prefix = human IgG4 Fc) VH: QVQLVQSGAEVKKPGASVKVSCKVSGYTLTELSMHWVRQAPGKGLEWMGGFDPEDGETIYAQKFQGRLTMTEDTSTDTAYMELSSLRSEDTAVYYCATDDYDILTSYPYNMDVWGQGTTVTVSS VL: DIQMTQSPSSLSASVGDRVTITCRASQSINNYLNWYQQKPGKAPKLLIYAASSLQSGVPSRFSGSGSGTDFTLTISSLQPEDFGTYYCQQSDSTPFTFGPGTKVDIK
pKd: 8.90
//
BINDER: H4H2926N (antibody, human IgG4, V domains shown, H4H prefix = human IgG4 Fc) VH: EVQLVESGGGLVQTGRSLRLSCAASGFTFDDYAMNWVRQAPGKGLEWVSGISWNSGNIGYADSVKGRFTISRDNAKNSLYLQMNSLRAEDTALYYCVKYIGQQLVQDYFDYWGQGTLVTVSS VL: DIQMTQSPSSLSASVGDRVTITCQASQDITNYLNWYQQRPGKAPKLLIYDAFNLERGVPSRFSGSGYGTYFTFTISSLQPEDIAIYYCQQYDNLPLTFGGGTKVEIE
pKd: 8.26

Reported pKd of H4H6260P (antibody, human IgG4, V domains shown, H4H prefix = human IgG4 Fc) VH: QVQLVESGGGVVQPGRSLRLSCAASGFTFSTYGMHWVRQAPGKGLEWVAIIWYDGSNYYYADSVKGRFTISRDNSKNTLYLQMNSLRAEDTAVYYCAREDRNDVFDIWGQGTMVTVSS VL: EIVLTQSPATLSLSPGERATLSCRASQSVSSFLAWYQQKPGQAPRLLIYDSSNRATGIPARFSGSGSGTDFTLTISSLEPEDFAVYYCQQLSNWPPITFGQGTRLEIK : 9.17

Reported pKd of H2bM2891N (antibody, mouse IgG2, V domains shown, H2M prefix = mouse IgG2 Fc (here H2bM); also called H2M2891N) VH: EVQMVESGGGLVQPGGSLRLSCAASRFTLSNYWMGWVRQAPGKGLEWVANIKQDGSEKYYVDSVRGRFTISRDNAKNSLYLQMNSLRAEDTAVYYCARDYDFWRSFDYWGQGTLVTVPS VL: DIQMTQSPSSVSASVGDRVTITCRASQGVSSWLAWYQQTPGKAPKLLIYVVSSLQSGVPSRFSGSGSGTDFTLTINSLQPEDFATYYCQQGNSFPYTFGQGTKLEIK : 7.22

Reported pKd of H2bM2906N (antibody, mouse IgG2, V domains shown, H2M prefix = mouse IgG2 Fc (here H2bM); also called H2M2906N) VH: EVQMVESGGGLVQPGGSLRLSCAASGFTLSNYWMGWVRQAPGKGLEWVANIKQDGSEKYYVDSVRGRFTISRDNAKNSLYLQMNSLRAEDTAVYYCARDYDFWRSFDYWGQGTLVTVSS VL: DIQMTQSPSSVSASVGDRVTITCRASQGVSSWLAWYQQKPGKTPKLLIYVVSSLQSGVPSRFSGRGSGTDFTLTINSLQPEDFATYYCQQGNSFPYTFGQGTKLEIK : 7.82

Reported pKd of H3M2929N (antibody, V domains shown, H3M prefix marks the Fc (chimeric, mouse constant domains)) VH: QVQLVESGGGVVQPGRSLRLSCAASGFIFSSYGMHWVRQAPGKGLEWVAVIWNDGSNKYSADSVKGRFTVSRDNSKNTLYLQMNSLKAEDTAVYYCARDGEWEVFDYWGQGTLVTVSS VL: DIVMTQSPVTLSASPGERATLSCRASQSVRSNLAWYQEKPGQAPRLLIYGASTRATGIPARFSGSGSGTEFTLTISSLQSEDFAVYYCQQYNDWPPWTFGQGTKVEIK : 7.54
